Molecular target: Histone-lysine N-methyltransferase EHMT2 (Homo sapiens) (UniProt Q96KQ7)
Sequence (Q96KQ7 913-1193 limits assumed): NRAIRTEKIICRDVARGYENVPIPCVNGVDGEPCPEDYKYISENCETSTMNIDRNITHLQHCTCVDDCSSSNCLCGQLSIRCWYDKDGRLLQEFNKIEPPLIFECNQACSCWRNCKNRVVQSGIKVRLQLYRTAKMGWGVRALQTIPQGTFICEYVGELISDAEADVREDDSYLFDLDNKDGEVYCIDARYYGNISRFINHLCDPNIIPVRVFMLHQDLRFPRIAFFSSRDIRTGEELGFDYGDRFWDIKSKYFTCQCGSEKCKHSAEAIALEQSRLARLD
Experiment: qHTS Assay for Inhibitors of Histone Lysine Methyltransferase G9a
Details: G9a H3K9 monomethylation, AlphaScreen, 2 h; series mostly up to 102 µM
The whole screen tested about 350,000 compounds, of which about 31,000 (8.9%) were called active. Not shown: some 15% with an inconclusive outcome. The list comes from a sample in which actives are over-represented; it also holds close analogues and randomly drawn compounds.
readout_label: activity, negative = inhibition

O=C(CCNS(=O)(=O)c1ccccc1)Nc1ccc(Cl)cc1C(=O)c1ccccc1; inactive
O=C(CCC(=O)N1C[C@H]2C[C@@H](C1)c1cccc(=O)n1C2)NCc1ccccc1C(F)(F)F; 12.2% [at 0.501 µM] (inactive)
CCN1CCN(Cc2cc(OC)c3c(c2)OCO3)CC1; inactive
CCN(N=Nc1nonc1OC)c1nonc1OC; inactive
COc1cccc(C(=O)N2C[C@H]3C[C@@H](C2)c2cccc(=O)n2C3)c1; 1.87% [at 12.7 µM] (inactive)
CN1CCC(OC(=O)c2cccc(F)c2)CC1; inactive
c1ccc(N2CC[C@@]3(CCCNC3)C2)nc1; -39.9% [at 12.7 µM] (inactive)
C[C@]12CC[C@H](O)C[C@H]1CC[C@@H]1C2CC[C@]2(C)[C@@H](C3=CC(=O)OC3)[C@@H](O)C[C@]12O (stereo partly specified); -8.99% [at 2.33 µM] (inactive)
C[C@H]1CC[C@@]2(NC1)O[C@@H]1C[C@H]3[C@@H]4CC=C5C[C@@H](O)CC[C@]5(C)[C@@H]4CC[C@]3(C)[C@@H]1[C@@H]2C; 18.8% [at 21.5 µM] (inactive)
O=C(COC(=O)c1ccccc1)Nc1ccccc1Sc1ccccc1; inactive
c1csc(CN2CC3(CCNCC3)C2)n1; -16.9% [at 12.7 µM] (inactive)

----------
Biological target: Histone-lysine N-methyltransferase EHMT2 (Homo sapiens) (UniProt Q96KQ7)
Assay: qHTS Assay for Inhibitors of Histone Lysine Methyltransferase G9a
Details: G9a H3K9 monomethylation, AlphaScreen, 2 h; series mostly up to 102 µM
Among all 350,000 compounds or so, about 31,000 (8.9%) were called active. Inconclusive results (about 15%) are left out. Shown is part of a subset that was picked to be rich in actives.
readout_label: activity, negative = inhibition

COC(=O)C1=C(c2ccc(-c3ccccc3)c(F)c2)C[C@@H]2CC[C@H]1N2C(=O)NCc1ccc(F)cc1; 12.5% [at 0.501 µM] (inactive)
CNC(=O)O/N=C(\N)Cc1csc2ccccc12; inactive
O=Cc1cn(Cc2ccc(F)cc2Cl)c2ccccc12; inactive
COC(=O)C1=C(c2ccc(F)cc2OCc2ccccc2)C[C@@H]2CC[C@H]1N2C(=O)NCc1ccc(OC)c(OC)c1; -8.71% [at 0.501 µM] (inactive)
O=C(CCCn1c(=O)[nH]c2cc(Cl)ccc2c1=O)N1CCC2(CC1)OCCO2; inactive
Cc1ccccc1NC(=O)COC(=O)c1cc(C)n(C2CC2)c1C; inactive
COc1ccc(-c2nn(CCC#N)cc2C(=O)Nc2ccc(C(C)=O)cc2)cc1; inactive
COC(=O)C1=C(c2ccc3ccccc3c2)C[C@@H]2CC[C@H]1N2C(=O)NCCO; 26.7% [at 2.33 µM] (inactive)
O=C(O)c1ccccc1NC(=O)C1C2CCC(O2)C1C(=O)O (stereo not given); -2.22% [at 0.501 µM] (inactive)
CN1CCN(c2cc(N3CCNCC3)ccc2[N+](=O)[O-])CC1; inactive

----------
Target: Histone-lysine N-methyltransferase EHMT2 (Homo sapiens) (UniProt Q96KQ7)
Assay: qHTS Assay for Inhibitors of Histone Lysine Methyltransferase G9a
Conditions: G9a H3K9 monomethylation, AlphaScreen, 2 h; series mostly up to 102 µM
Among all 350,000 compounds or so, about 31,000 (8.9%) were called active. About 15% were inconclusive and are not listed. Many of the other results were omitted from the sample, so actives are more common in it than they were.
readout_label: activity, negative = inhibition

Cc1ccc(-n2c(/C=C/c3cccc(C(F)(F)F)c3)nc3ccccc3c2=O)cc1; inactive
Fc1ccc(C2N3CCCN23)cc1 (stereo not drawn); inactive
CCOc1ccc(C2SCC(=O)Nc3c2c(C)nn3C2CCOC(C)(C)C2)cc1 (stereo not drawn); inactive

----------
Target: Histone-lysine N-methyltransferase EHMT2 (Homo sapiens) (UniProt Q96KQ7)
Experiment: qHTS Assay for Inhibitors of Histone Lysine Methyltransferase G9a; also: % is scaled to controls: 0 for no effect and ±100 for the full control effect; nearly all actives have a fitted effect of over 75% in size
Conditions: G9a H3K9 monomethylation, AlphaScreen, 2 h; series mostly up to 102 µM
Out of some 350,000 compounds screened, about 31,000 (8.9%) were called active. Another 15% or so got no clear call; they are omitted. This excerpt belongs to a sample that is enriched for actives.
readout_label: activity, negative = inhibition

CC(=O)OC1C2CCC3C1(CC(O)[C@@]1(O)[C@@H](CC(O)C1(C)C)[C@]3(C)O)C[C@@]2(C)O (stereo not given in full); -31.5% [at 2.33 µM] (inactive)
COc1ccccc1N1CCN(C(CNC(=O)Oc2ccccc2)c2cccnc2)CC1 (stereo not given); inactive
CN(C)C(=O)Oc1cc(=O)n2c3c(cccc13)CCC2; inactive
N#CC1=C(N)Oc2c(c(=O)oc3ccccc23)C1c1ccccc1OC(=O)c1cccs1 (stereo not given); inactive
CC12CN3CC(C)(CN(C1)C3c1cccs1)C2 (stereo not given); inactive

----------
Target: Histone-lysine N-methyltransferase EHMT2 (Homo sapiens)
Assay: qHTS Assay for Inhibitors of Histone Lysine Methyltransferase G9a; also: % is scaled to controls: 0 for no effect and ±100 for the full control effect; nearly all actives have a fitted effect of over 75% in size
Settings: G9a H3K9 monomethylation, AlphaScreen, 2 h; series mostly up to 102 µM
Procedure: Methylated lysines, on the N-terminal tails of histone proteins serve as epigenetic markers to recruit factors that can then modify local chromatin structure to lead to functional consequences. […] Methylation of biotinylated-histone peptide is measured through specific antibody-based detection, in conjunction with streptavidin-coated donor and anti-IgG antibody-coated acceptor beads. […]
In all, about 350,000 compounds went through this assay and about 31,000 (8.9%) were called active. About 15% were inconclusive and are not listed. The full list was thinned out, with actives kept by preference.
readout_label: activity, negative = inhibition

CCCC[N+]1(C)C2CC(OC(=O)C(CO)c3ccccc3)CC1C1OC12 (stereo not given); inactive
CN(C)C(=O)Oc1cc(OC(=O)N(C)C)cc(C(O)CNC(C)(C)C)c1 (stereo not given); inactive
COP(=O)(NS(=O)(=O)c1ccccc1)OC; inactive
CCOP(=O)(OCC)C(NC(=O)NC)C(N)=O (stereo not given); inactive
CCN1C[C@@]2(COC)CC[C@H](OC)[C@]34[C@@H]1[C@]1(OCO[C@@]15C[C@@H](OC)C1C[C@H]3[C@H]5[C@@H]1OC)[C@H](O)[C@@H]24; 26.9% [at 21.5 µM] (inactive)
Cc1nn(-c2ccccc2)c(C)c1NC(=O)COC(=O)Cc1ccccc1; inactive
CCOC(=O)c1c(N)n(CCN2CCOCC2)c2nc3ccccc3nc12; inactive
CCOc1ccc(-c2cc(C)[n+](CCN(CC)CC)c(-c3ccc(OCC)cc3)c2)cc1; inactive
CCOC(=O)C(O)(c1ccc(NC(=O)c2ccco2)c(OC)c1)C(F)(F)F (stereo not given); -45.5% [at 2.33 µM] (inactive)
Nc1ccc(C(=O)N/N=C2/CN3CCC2CC3)cc1; inactive

----------
Target: Histone-lysine N-methyltransferase EHMT2 (Homo sapiens) (UniProt Q96KQ7)
Assay: qHTS Assay for Inhibitors of Histone Lysine Methyltransferase G9a; also: % is scaled to controls: 0 for no effect and ±100 for the full control effect; nearly all actives have a fitted effect of over 75% in size
Conditions: G9a H3K9 monomethylation, AlphaScreen, 2 h; series mostly up to 102 µM
About 31,000 (8.9%) of roughly 350,000 compounds were called active. About 15% were inconclusive and are not listed. The list comes from a sample in which actives are over-represented; it also holds close analogues and randomly drawn compounds.
readout_label: activity, negative = inhibition

CCOP(=O)(OCC)C(O)c1ccc(OC)cc1OC (stereo not drawn); inactive
NCCc1ccc(S(=O)(=O)F)cc1; inactive
c1ccc2sc(N3CCNCC3)nc2c1; inactive
COC(=O)C(O)(c1ccc(NC(=O)c2ccco2)c(OC)c1)C(F)(F)F (stereo not drawn); inactive
CCc1nc2ccccc2c(=O)n1-c1cccc(OC)c1; inactive
CC(Cc1cccs1)NCc1ccc(Cl)cc1 (stereo not drawn); inactive
c1ccc(CN2CC[C@@]3(CCCNC3)C2)cc1; -24.8% [at 12.7 µM] (inactive)
COC(=O)C1=C(c2ccc(Cl)c(C(F)(F)F)c2)C[C@@H]2CC[C@H]1N2C(=O)NC(C)C; 11.8% [at 2.33 µM] (inactive)

----------
Molecular target: Histone-lysine N-methyltransferase EHMT2 (Homo sapiens) (UniProt Q96KQ7)
Assay: qHTS Assay for Inhibitors of Histone Lysine Methyltransferase G9a; also: % is scaled to controls: 0 for no effect and ±100 for the full control effect; nearly all actives have a fitted effect of over 75% in size
Conditions: G9a H3K9 monomethylation, AlphaScreen, 2 h; series mostly up to 102 µM
About 31,000 (8.9%) of roughly 350,000 compounds were called active. Not shown: some 15% with an inconclusive outcome. Many of the other results were omitted from the sample, so actives are more common in it than they were.
readout_label: activity, negative = inhibition

NC(=O)Cn1cc(C(=O)c2ccccc2F)c2ccccc21; inactive
COCCNC(=O)CN1C2CCC1CC(O)(c1cccnc1)C2 (configuration not stated); inactive
CCOC(=O)C(O)(c1ccc(N)c(OC)c1)C(F)(F)F (configuration not stated); -7.69% [at 2.33 µM] (inactive)
CCN(CC)C(=O)c1ccc(NC(=O)c2sccc2-c2ccccc2)cc1; inactive
CN(C)S(=O)(=O)c1cc(C(=O)N2CCC(C(=O)O)(c3ccccc3)CC2)ccc1Cl; inactive
CC(C)n1c(=O)c(C=Nc2ccc(Br)cc2)c(O)n(Cc2ccco2)c1=O; inactive
CCOC(=O)CC1=C(C(=O)OCC)C2(C(=O)N1)C(C(=O)OC)=C(N)Oc1ccccc12 (configuration not stated); inactive
C/C(CCc1c[nH]c2ccccc12)=N\O; 13.7% [at 12.7 µM] (inactive)
Cc1nc2nc(C)c(CCC(=O)N3CCC4(CC3)OCCO4)c(C)n2n1; inactive
Cn1c(O)c(C=Nc2ccc3c(c2)CCC3)c(=O)n(C)c1=O; inactive
c1cncc(CNCCc2c[nH]c3ccccc23)c1; inactive
CCc1ccc(OCC(=O)N2CCN(CC(=O)Nc3ccccc3Cl)CC2)cc1; -1.72% [at 2.33 µM] (inactive)
O=C(CCN1CCCCC1)NCC(=O)Nc1ccc(Br)cc1C(=O)c1ccccc1; inactive
O=C(COC(=O)c1ccccc1)Nc1ccc(Cl)cc1C(=O)c1ccccc1; inactive
O=C(Cn1c(=O)n(CC2CS2)c2ccccc21)N1CCCCC1 (configuration not stated); inactive
Cc1ccc2c(c1)C1CN(C)CCC1N2C(=O)Cn1nnc(-c2ccccc2F)n1 (configuration not stated); inactive
CCOC(=O)c1c(-c2ccccc2)oc2ccc(OC(=O)N(C)C)cc12; 6.28% [at 12.7 µM] (inactive)
Cc1ccc(-c2nc3ccccc3c(=O)n2-c2ccc(Br)cn2)cc1; inactive
CC[N+](CC)(CC)CCCCCCCCCC[N+](CC)(CC)CC; inactive
Cc1nn(Cc2ccccc2Cl)c(Cl)c1C(=O)OC(C(=O)NC(N)=O)C(C)C (configuration not stated); inactive
CCN1CCN(C(=O)Cc2coc3cc(C)cc(C)c23)CC1; inactive
CC1=C2C(=O)C3C(CC=C4CC(OC5OC(O)C(O)C(O)C5CO)CCC43C)C2CCC12OC1CC(C)CNC1C2C (configuration not stated); inactive
CCCCCCCCCCCCn1ccc(=N)cc1; inactive
CC(=O)NC(=O)NC(C)Cc1ccccc1 (configuration not stated); inactive
O=C(COC(=O)Cc1ccccc1)Nc1ccc(F)cc1; inactive
CCC(=NCCc1ccccc1)c1c(O)n(C2CCCCC2)c(=O)[nH]c1=O; inactive
Clc1cccc(Cl)c1Cl; 8.54% [at 0.501 µM] (inactive)
